Here the recorded furin cleavage Z-score is given for each entry.
# target: furin, P09958;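 note: purified furin at 1:10 enzyme:substrate in 50 mM HEPES pH 7.5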
# Sequence (P09958 whole entry): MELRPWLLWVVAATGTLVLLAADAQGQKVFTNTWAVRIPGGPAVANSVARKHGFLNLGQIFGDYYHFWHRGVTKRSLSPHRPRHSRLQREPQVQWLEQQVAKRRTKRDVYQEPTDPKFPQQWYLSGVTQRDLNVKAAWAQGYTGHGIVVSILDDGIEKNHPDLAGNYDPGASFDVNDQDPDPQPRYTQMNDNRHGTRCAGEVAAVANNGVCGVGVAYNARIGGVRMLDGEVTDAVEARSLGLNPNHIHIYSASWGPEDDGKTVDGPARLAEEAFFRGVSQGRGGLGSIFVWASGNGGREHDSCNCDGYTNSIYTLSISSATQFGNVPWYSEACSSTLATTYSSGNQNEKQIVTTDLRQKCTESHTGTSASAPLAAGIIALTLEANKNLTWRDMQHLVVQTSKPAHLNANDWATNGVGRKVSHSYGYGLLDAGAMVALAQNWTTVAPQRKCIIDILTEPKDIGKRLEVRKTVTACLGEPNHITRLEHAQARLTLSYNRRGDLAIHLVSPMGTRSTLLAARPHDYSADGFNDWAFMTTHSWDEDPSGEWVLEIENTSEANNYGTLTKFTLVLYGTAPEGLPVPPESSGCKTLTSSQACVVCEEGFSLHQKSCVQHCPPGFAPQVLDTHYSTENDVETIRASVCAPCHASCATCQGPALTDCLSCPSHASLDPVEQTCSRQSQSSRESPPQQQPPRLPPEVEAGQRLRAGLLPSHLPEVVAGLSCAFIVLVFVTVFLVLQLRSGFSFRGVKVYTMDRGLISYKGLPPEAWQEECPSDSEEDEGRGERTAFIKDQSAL
# assayOverview: furin cleavage Z-score vs untreated control; higher = more cleavage, active = 3.5 or more, inactive = 1 or less, 8 variable residues between constant flanks
# conditionsUsed: 15 min
This is one part of the list. No count for the full screen is at hand.
endpointLabel: furin cleavage Z-score

[
  {
    "biosequence": "CARVARHAAPAGNASASA [FS-2193]",
    "resultNumber": 8.49
  },
  {
    "biosequence": "CARVARVAREAGNASASA [FS-1799]",
    "resultNumber": 5.71
  },
  {
    "biosequence": "CATTPCIGSWAGNASASA [HC65]",
    "resultNumber": 3.77
  },
  {
    "biosequence": "CAPQARVAIKAGNASASA [HC1494]",
    "resultNumber": -0.346
  },
  {
    "biosequence": "CATTPCWGSWAGNASASA [HC67]",
    "resultNumber": 1.14
  },
  {
    "biosequence": "CAGRERMAREAGNASASA [FS-332]",
    "resultNumber": 6.35
  },
  {
    "biosequence": "CARVARVRGGAGNASASA [FS-1938]",
    "resultNumber": -0.337
  }
]
